Data provenance: paper PMC8829872

- Assay Explanation: Unified compartmental PK model (ADAPT5)
- Set-up: species or system mice
- Experimental Context: Balb/c, mouse, plasma; 2 mg/kg PO; read-out: Model F (compartmental bioavailability)
Observed Property: bioavailability (%)
// units = %; emit number, no label

[in] Fill in reported bioavailability for this entry: C[C@@H]1COCCN1c1cc(C2([S@](C)(=N)=O)CC2)nc(-c2cc[nH]c3nccc2-3)n1 [AZD6738]
[out] 40.4

---

- Assay Explanation: Extensive tissue distribution study in CT26 tumor-bearing mice
- Assay type: in vivo, Balb/c mice
- Experimental Context: Balb/c, mouse, kidney; 75 mg/kg PO; Kidneys; read-out: Tmax (converted)
Observed Property: Tmax (min)
Note: unit min is implicit; provide only the numeric part.

[in] For `C[C@@H]1COCCN1c1cc(C2([S@](C)(=N)=O)CC2)nc(-c2cc[nH]c3nccc2-3)n1` , write its Tmax.
[out] 15
